Procedure summary: Quantitative High-Throughput drug screen in 47 multiple myeloma cell lines against the NCATS MIPE library collection: H1112_PLB cell viability assay (AID 1918967; further: nearly all actives have a fitted effect of over 30% in size)
Assay context: H1112 myeloma cells viability, ATP luminescence, 48 h; series mostly up to 45.8 µM
Inconclusive results are not listed. Activity calls are given as the source filed them. The call rests on the fitted dose curve; in most records, active means well fitted cell-killing curve with a large enough effect; inconclusive means small, poorly fitted or top-dose-only effect, or effect the other way; inactive means no such curve, though single readings can be large or run the other way.
Lab note: assign the record to one of T for active, F for inactive

Solved entries (count: 3):
Compound	Answer label
O=C(OCC#CCSc1nnc(-c2cccc3ccccc23)o1)c1cc2ccccc2s1	F
CON=C(C(=O)N[C@@H]1C(=O)N2C(C(=O)OCOC(=O)C(C)(C)C)=C(C=Cc3scnc3C)CS[C@H]12)c1csc(N)n1	F
NC(CO)(CO)CCc1ccc(Sc2cccc(OCc3ccccc3)c2)cc1Cl	T

Note: attention shifts to another entry.
Exercise: Hello, I am checking results. What call was entered for COc1ccc(C2CC(c3ccccc3)=NN2c2ccc(S(N)(=O)=O)cc2)cc1 (centres undefined) ?
Key: T
